- Tested on: NCI-H2009
- assay.explanation: relative viability (nuclei count vs DMSO), 5 days (fraction); higher = more cells survive
- particulars: first compound 0.08 µM
measurement.type: relative viability
Numbers only.

Example results:
[[record]]
compound = "O=c1cc(-c2cccc3c2Sc2ccccc2S3)oc(N2CCOCC2)c1 + Nc1nc2[nH]cc(CCc3ccc(C(=O)N[C@@H](CCC(=O)O)C(=O)O)cc3)c2c(=O)[nH]1 [Pemetrexed] (partner 0.2 µM)"
measurement_type = "relative viability"
assay_result = 1.08

[[record]]
compound = "O=c1cc(-c2cccc3c2Sc2ccccc2S3)oc(N2CCOCC2)c1 + CC(=O)c1c(C)c2cnc(Nc3ccc(N4CCNCC4)cn3)nc2n(C2CCCC2)c1=O [Palbociclib] (partner 0.5 µM)"
measurement_type = "relative viability"
assay_result = 0.189


Could you report relative viability for every entry in the following list?
1. O=c1cc(-c2cccc3c2Sc2ccccc2S3)oc(N2CCOCC2)c1 + CC(=O)Nc1cccc(-n2c(=O)n(C3CC3)c(=O)c3c(Nc4ccc(I)cc4F)n(C)c(=O)c(C)c32)c1 [Trametinib] (partner 0.02 µM)
2. COc1nc(C)cnc1NS(=O)(=O)c1cccnc1-c1ccc(-c2nnco2)cc1 [Zibotentan] + Nc1nc2[nH]cc(CCc3ccc(C(=O)N[C@@H](CCC(=O)O)C(=O)O)cc3)c2c(=O)[nH]1 [Pemetrexed] (partner 0.2 µM)
3. COc1nc(C)cnc1NS(=O)(=O)c1cccnc1-c1ccc(-c2nnco2)cc1 [Zibotentan] + O=C(CCCCCCC(=O)Nc1ccccc1)NO [Vorinostat] (partner 1 µM)

Output line:
1: 0.257; 2: 1.03; 3: 0.705

====

- Tested on: NCI-H1993
- assay.explanation: relative viability (nuclei count vs DMSO), 5 days (fraction); higher = more cells survive
- particulars: first compound 0.8 µM
Label 1 (yes) when relative viability is strictly below 0.5; at or above that, label 0 (no).

[[record]]
compound = "O=c1cc(-c2cccc3c2Sc2ccccc2S3)oc(N2CCOCC2)c1 + CC(=O)Nc1cccc(-n2c(=O)n(C3CC3)c(=O)c3c(Nc4ccc(I)cc4F)n(C)c(=O)c(C)c32)c1 [Trametinib] (partner 0.02 µM)"
discrete_label = "1 (yes)"


Input line: Criterion: relative viability strictly below 0.5. Is it met by O=c1cc(-c2cccc3c2Sc2ccccc2S3)oc(N2CCOCC2)c1 + O=C(CCCCCCC(=O)Nc1ccccc1)NO [Vorinostat] (partner 1 µM) ?
Output line: 0 (no)

Input line: Also, COc1nc(C)cnc1NS(=O)(=O)c1cccnc1-c1ccc(-c2nnco2)cc1 [Zibotentan] + O=C(CCCCCCC(=O)Nc1ccccc1)NO [Vorinostat] (partner 1 µM) please.
Output line: 0 (no)

Input line: Also, O=c1cc(-c2cccc3c2Sc2ccccc2S3)oc(N2CCOCC2)c1 + NC(=O)Nc1cc(-c2cccc(F)c2)sc1C(=O)N[C@H]1CCCNC1 [AZD7762] (partner 0.2 µM) please.
Output line: 0 (no)

Input line: Also, COc1nc(C)cnc1NS(=O)(=O)c1cccnc1-c1ccc(-c2nnco2)cc1 [Zibotentan] + Cc1nc(Nc2ncc(C(=O)Nc3c(C)cccc3Cl)s2)cc(N2CCN(CCO)CC2)n1 [Dasatinib] (partner 0.075 µM) please.
Output line: 1 (yes)

====

- Tested on: NCI-H1355
- assay.explanation: relative viability (nuclei count vs DMSO), 5 days (fraction); higher = more cells survive
- particulars: first compound 20 µM
Task for the reader: assign each of the following compounds its reported relative viability.
Give bare numbers.

Example results:
[[record]]
compound = "COCC1(CO)C(=O)C2CCN1CC2 (centres undefined) [PRIMA-1MET] + CS(=O)(=O)CCNCc1ccc(-c2ccc3ncnc(Nc4ccc(OCc5cccc(F)c5)c(Cl)c4)c3c2)o1 [Lapatinib] (partner 2 µM)"
assay_result = 0.998

[[record]]
compound = "COCC1(CO)C(=O)C2CCN1CC2 (centres undefined) [PRIMA-1MET] + C[C@]1(O)C[C@@H](c2nc(-c3ccc4ccc(-c5ccccc5)nc4c3)c3c(N)nccn32)C1 [Linsitinib] (partner 1 µM)"
assay_result = 0.76

[[record]]
compound = "COCC1(CO)C(=O)C2CCN1CC2 (centres undefined) [PRIMA-1MET] + CC1(C)CCC(c2ccc(Cl)cc2)=C(CN2CCN(c3ccc(C(=O)NS(=O)(=O)c4ccc(N[C@H](CCN5CCOCC5)CSc5ccccc5)c(S(=O)(=O)C(F)(F)F)c4)cc3)CC2)C1 [Navitoclax] (partner 0.5 µM)"
assay_result = 0.944


Okay, next one:
Input line: Form field: relative viability recorded for COCC1(CO)C(=O)C2CCN1CC2 (centres undefined) [PRIMA-1MET] + N=C(N)NC(=N)NCCc1ccccc1 [Phenformin] (partner 250 µM) with NCI-H1355 (enter value)
Output line: 0.421

====

- Test system: NCI-H2347
- assay.explanation: relative viability (nuclei count vs DMSO), 5 days (fraction); higher = more cells survive
- particulars: first compound 0.08 µM
measurement.type: relative viability
Give bare numbers.

Example results:
[[record]]
molecule = "COc1nc(C)cnc1NS(=O)(=O)c1cccnc1-c1ccc(-c2nnco2)cc1 [Zibotentan] + NC(=O)Nc1cc(-c2cccc(F)c2)sc1C(=O)N[C@H]1CCCNC1 [AZD7762] (partner 0.2 µM)"
assay_target = "NCI-H2347"
assay_result = 0.733

[[record]]
molecule = "COc1nc(C)cnc1NS(=O)(=O)c1cccnc1-c1ccc(-c2nnco2)cc1 [Zibotentan] + CS(=O)(=O)CCNCc1ccc(-c2ccc3ncnc(Nc4ccc(OCc5cccc(F)c5)c(Cl)c4)c3c2)o1 [Lapatinib] (partner 2 µM)"
assay_target = "NCI-H2347"
assay_result = 1.05

[[record]]
molecule = "O=c1cc(-c2cccc3c2Sc2ccccc2S3)oc(N2CCOCC2)c1 + Nc1ncn([C@H]2C[C@H](O)[C@@H](CO)O2)c(=O)n1 [Decitabine] (partner 2 µM)"
assay_target = "NCI-H2347"
assay_result = 0.606


Okay, next one:
Input line: Returns the measured relative viability for the input molecule. Input: COc1nc(C)cnc1NS(=O)(=O)c1cccnc1-c1ccc(-c2nnco2)cc1 [Zibotentan] + CC(=O)Nc1cccc(-n2c(=O)n(C3CC3)c(=O)c3c(Nc4ccc(I)cc4F)n(C)c(=O)c(C)c32)c1 [Trametinib] (partner 0.02 µM)
Output line: 0.252

====

- System: HCC-44
- assay.explanation: relative viability (nuclei count vs DMSO), 5 days (fraction); higher = more cells survive
- particulars: first compound 0.08 µM
Task for the reader: assign each of the following molecules its reported relative viability.
Answers are plain numbers.

Example results:
[[record]]
molecule = "O=c1cc(-c2cccc3c2Sc2ccccc2S3)oc(N2CCOCC2)c1 + O=C(c1cc(Cc2n[nH]c(=O)c3ccccc23)ccc1F)N1CCN(C(=O)C2CC2)CC1 [Olaparib] (partner 8 µM)"
assay_result = 0.927

[[record]]
molecule = "COc1nc(C)cnc1NS(=O)(=O)c1cccnc1-c1ccc(-c2nnco2)cc1 [Zibotentan] + NC(=O)Nc1cc(-c2cccc(F)c2)sc1C(=O)N[C@H]1CCCNC1 [AZD7762] (partner 0.2 µM)"
assay_result = 1.01

[[record]]
molecule = "O=c1cc(-c2cccc3c2Sc2ccccc2S3)oc(N2CCOCC2)c1 + NC(=O)Nc1cc(-c2cccc(F)c2)sc1C(=O)N[C@H]1CCCNC1 [AZD7762] (partner 0.2 µM)"
assay_result = 1.06


Input line: Returns the measured relative viability for the input molecule. Input: COc1nc(C)cnc1NS(=O)(=O)c1cccnc1-c1ccc(-c2nnco2)cc1 [Zibotentan] + O=C(c1cc(Cc2n[nH]c(=O)c3ccccc23)ccc1F)N1CCN(C(=O)C2CC2)CC1 [Olaparib] (partner 8 µM)
Output line: 0.958

====

Task for the reader: assign each of the following molecules its reported relative viability.
- Test system: NCI-H650
- assay.explanation: relative viability (nuclei count vs DMSO), 5 days (fraction); higher = more cells survive
- particulars: first compound 1 µM
Give bare numbers.

[[record]]
molecule = "CCN(CC)CCCCNc1ncc2cc(-c3cc(OC)cc(OC)c3)c(NC(=O)NC(C)(C)C)nc2n1 + Cc1nc(Nc2ncc(C(=O)Nc3c(C)cccc3Cl)s2)cc(N2CCN(CCO)CC2)n1 [Dasatinib] (partner 0.075 µM)"
assay_result = 0.427

[[record]]
molecule = "CCN(CC)CCCCNc1ncc2cc(-c3cc(OC)cc(OC)c3)c(NC(=O)NC(C)(C)C)nc2n1 + CS(=O)(=O)N1CCN(Cc2cc3nc(-c4cccc5[nH]ncc45)nc(N4CCOCC4)c3s2)CC1 [Pictilisib] (partner 1 µM)"
assay_result = 0.925

[[record]]
molecule = "O=c1cc(N2CCOCC2)oc2c(-c3cccc4c3sc3ccccc34)cccc12 + O=C(c1cc(Cc2n[nH]c(=O)c3ccccc23)ccc1F)N1CCN(C(=O)C2CC2)CC1 [Olaparib] (partner 8 µM)"
assay_result = 0.4


Input line: Returns the measured relative viability for the input molecule. Input: CCN(CC)CCCCNc1ncc2cc(-c3cc(OC)cc(OC)c3)c(NC(=O)NC(C)(C)C)nc2n1 + CC(=O)c1c(C)c2cnc(Nc3ccc(N4CCNCC4)cn3)nc2n(C2CCCC2)c1=O [Palbociclib] (partner 0.5 µM)
Output line: 0.32
